Origin of measurements: patent US11498896B2

test system: human D2R/β-arrestin (Homo sapiens (Human), UniProt P14416)
Sequence (P14416 whole entry): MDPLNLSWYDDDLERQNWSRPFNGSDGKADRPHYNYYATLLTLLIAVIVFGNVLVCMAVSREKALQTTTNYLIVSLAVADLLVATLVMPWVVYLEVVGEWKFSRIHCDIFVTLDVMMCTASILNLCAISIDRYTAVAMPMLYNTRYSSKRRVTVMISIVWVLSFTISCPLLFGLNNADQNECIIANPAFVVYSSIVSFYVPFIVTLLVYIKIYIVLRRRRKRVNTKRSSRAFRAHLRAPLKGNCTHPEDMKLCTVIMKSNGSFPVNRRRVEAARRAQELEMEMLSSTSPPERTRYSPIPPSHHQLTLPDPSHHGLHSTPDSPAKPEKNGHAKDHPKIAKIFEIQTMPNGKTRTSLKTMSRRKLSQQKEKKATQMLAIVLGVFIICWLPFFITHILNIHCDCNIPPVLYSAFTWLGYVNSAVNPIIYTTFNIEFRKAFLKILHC
method: cell-based
condition: β-arrestin Antagonist, CHO-K1 cells expressing human D2R/β-arrestin; antagonist mode, quinpirole 130 nM
pIC50: −log10 of the molar value.
measurement label: pIC50

CC1(Oc2ccncc2)CCN(CCOc2ccccc2)C1 (centres unmarked) = < 4.52

Request: Consider the compound CC1(Oc2cccc(C(F)(F)F)c2)CCCN(CCOc2ccccc2Cl)C1 (centres unmarked) and give its recorded pIC50.
Result: 5.00 to 6.00

Request: Report pIC50, nothing else, for this compound: CC1(C(=O)N2CCCC2)CCN(C[C@H]2COc3ccccc3O2)CC1
Result: > 7.00

Request: Write down pIC50 measured for item CC1(Oc2ccc(Cl)cc2)CCN(CCOc2ccccc2Cl)C1 (centres unmarked)
Result: 6.00 to 7.00

Request: Could you please provide reported pIC50 for CC1(Oc2ccc(F)cc2)CCN(CCOc2ccccc2)C1 (centres unmarked) ? Thanks!
Result: 6.00 to 7.00

Request: Write down pIC50 measured for item CC1(Oc2ccccc2)CCN(CCCc2ccccc2C(F)(F)F)CC1
Result: 6.00 to 7.00

Request: // fetch pIC50 given entry CC1(Oc2ccc(Cl)cc2)CCN(CCOc2cccc(C(F)(F)F)c2)C1 (centres unmarked)
Result: 5.00 to 6.00

Request: Supply recorded pIC50 for CC1(Oc2ccc(Cl)cc2)CCN(CCOc2cncs2)CC1 here.
Result: 4.52 to 5.00

Request: Report pIC50, nothing else, for this compound: CC1(Oc2cccc([N+](=O)[O-])c2)CCN(CCOc2ccccc2)C1 (centres unmarked)
Result: 5.00 to 6.00

Request: Please list pIC50 recorded for the compound CC1(Oc2ccc(Cl)cc2)CCN(CCOc2cccc(Cl)c2)C1 (centres unmarked)
Result: 5.00 to 6.00

Request: Identify measured pIC50 corresponding to CC1(Oc2cccc(C(F)(F)F)c2)CCCN(CCOc2ccccc2)C1 (centres unmarked)
Result: 5.00 to 6.00

Request: Supply pIC50 value. Item: CC1(C(=O)Nc2ccccc2)CCN(CCOc2ccccc2C(F)(F)F)CC1
Result: 6.00 to 7.00

Request: Supply measured pIC50 of COc1cc(F)ccc1OCCN1CCC(C)(Oc2ccc(Cl)cc2)CC1 in your reply.
Result: 5.00 to 6.00

Request: Consider the compound CC1(Oc2cccc(C(F)(F)F)c2)CCCN(CCOc2ccccc2F)C1 (centres unmarked) and give its recorded pIC50.
Result: 5.00 to 6.00

Request: // Input: CC1(Oc2ccc(Cl)cc2)CCN(CCOc2ccc3cccc(C(F)(F)F)c3n2)CC1 . Output its pIC50 only.
Result: < 4.52

Request: Identify pIC50 associated with the compound CC1(Oc2ccc(Cl)cc2)CCN(CCOc2cc(F)ccc2F)C1 (centres unmarked)
Result: 6.00 to 7.00

Request: Supply reported pIC50 belonging to this compound: CC1(NC(=O)C(F)(F)F)CCN(C[C@H]2COc3ccccc3O2)CC1
Result: 6.00 to 7.00

Request: State its pIC50 for this compound: CC1(Oc2ccc(Cl)cc2)CCN(CCOc2ccc(C(F)(F)F)c(O)c2)CC1
Result: 4.52 to 5.00

Request: Provide measured pIC50 value, entry: CC1(Oc2ccc(Cl)cc2)CCN(CCOc2ccccc2)CC1
Result: < 4.52

Request: Read off the recorded pIC50 for CC1(Oc2ccc(Cl)cc2)CCN(CCOc2ccc3ncsc3c2)C1 (centres unmarked)
Result: 5.00 to 6.00

Request: // fetch pIC50 given entry CC1(O)CCN(CCOc2ccccc2)CC1
Result: 4.52 to 5.00

Request: State its pIC50: Cc1ccc(OCCN2CCC(C)(Oc3ccc(Cl)cc3)CC2)cc1
Result: < 4.52

Request: # return recorded pIC50 for entry FC(F)(F)c1ccccc1OCCN1CCC(=Cc2ccccc2)CC1
Result: 5.00 to 6.00

Request: Give reported pIC50 value for FC(F)(F)c1ccccc1OCCN1CCC2(CC1)CC2c1ccc(Cl)cc1 (centres unmarked) [Compound 216]
Result: 4.52 to 5.00

Request: Recall and state the measured pIC50 for CC1(Oc2ccc(Cl)cc2)CCCN(CCOc2ccc3scnc3c2)C1 (centres unmarked) .
Result: 6.00 to 7.00

Request: State, in one line, measured pIC50 of COc1ccccc1OCCN1CCC(C)(O)CC1 [Compound 301, reference compound]
Result: 5.00 to 6.00

Request: Return the recorded pIC50 value; entry: CC1(Oc2ccc(Cl)cc2)CCN(CCOC2CCCCC2)CC1
Result: 4.52 to 5.00
